Measured pEC50 values are reported for all entries that follow.
Test system: T47D cells
method: clonogenic survival / colony formation assay, T47D
Type: cell-based, human
settings: Homo sapiens, T47D; clonogenic survival assay, ER+ BC cell line
Friendly reminder that pEC50 comes from taking -log10 of the concentration in mol/L.

In the examples that follow, each entry is paired with its recorded pEC50.
COc1cc(/C=C/C(=O)/C=C(O)/C=C/c2ccc(OC(=O)[C@H](Cc3ccccc3)NC(=O)C(Cl)Cl)c(OC)c2)ccc1OC(=O)[C@H](Cc1ccccc1)NC(=O)C(Cl)Cl | 5.90
COc1cc(/C=C/C(=O)/C=C(O)/C=C/c2ccc(OC(=O)CCNC(=O)C(Cl)Cl)c(OC)c2)ccc1OC(=O)CCNC(=O)C(Cl)Cl | 5.90

Then this compound:
[Q] Consider the compound shown here: COc1cc(/C=C/C(=O)/C=C(O)/C=C/c2ccc(OC(=O)[C@H](C)NC(=O)C(Cl)Cl)c(OC)c2)ccc1OC(=O)[C@H](C)NC(=O)C(Cl)Cl What is its recorded pEC50?
[A] 5.80

====

Test system: T47D cells
method: clonogenic survival / colony formation assay, T47D
Assay type: cell-based, human
settings: Homo sapiens, T47D; clonogenic survival assay, ER+ BC cell line
Description: MCF10A, T47D, and MB231 cells (5 × 10^3) were seeded in 24-well plates, and cells were exposed to different CMC conjugates at different concentrations (0, 1, 5, and 10 μM) for 2 weeks, changing the medium for every 3 days with respective CMC conjugates at the indicated concentrations. […] Finally, cells were lysed with lysis buffer (1% SDS in 0.2 N NaOH) for 5 min, and the absorbance of the released dye was measured at 630 nm, as described before. […]
endpoint name: EC50 (nM)
Give your result in nM as a bare value.

Known results for compounds:
COc1cc(/C=C/C(=O)/C=C(O)/C=C/c2ccc(OC(=O)CCCNC(=O)C(Cl)Cl)c(OC)c2)ccc1OC(=O)CCCNC(=O)C(Cl)Cl | 1370
COc1cc(/C=C/C(=O)/C=C(O)/C=C/c2ccc(OC(=O)CNC(=O)C(Cl)Cl)c(OC)c2)ccc1OC(=O)CNC(=O)C(Cl)Cl | 1420

[Q] # EC50 lookup, item COc1cc(/C=C/C(=O)/C=C(O)/C=C/c2ccc(OC(=O)C(Cl)Cl)c(OC)c2)ccc1OC(=O)C(Cl)Cl
[A] 1650
